Field: Population Healthy Nuclei (%). Provide a value for each of the compounds that follow.
# Test system: U2OS
# Test Description: Multiplex assay against U2OS
# Type: toxicity, cell-based
# Applied Conditions: human, 24 h, 1 µM, compound concentration 1 uM, replicate 1
All answers are understood in %, so give the number only.

Please fill in: Population Healthy Nuclei (%) reported for CC(C)(C)c1cnc(CSc2cnc(NC(=O)C3CCNCC3)s2)o1 = 75

Reported Population Healthy Nuclei (%) ( CC(=O)c1cc(-c2cc(C(=O)NC3CC3)ccc2C)c2ncccn12 ) = 89

Population Healthy Nuclei (%) reported for this compound CC(C)N1CCC(C)(C)c2cc(C#Cc3ccc(C(=O)O)cc3)ccc21 : 80

For record CCCn1c(=O)c2[nH]c(C34CC5CC(CC3C5)C4)nc2n(CCC)c1=O the listed Population Healthy Nuclei (%) is 74

Notebook: Cc1nc(Cc2cccc(C(F)(F)F)c2)sc1-c1ccc(C(N)=O)nc1 [TP-024n] , Population Healthy Nuclei (%) read as 86

Lab note: measured Population Healthy Nuclei (%) of CCn1c(-c2nonc2N)nc2cnc(Oc3cccc(NC(=O)c4ccc(OCCN5CCOCC5)cc4)c3)cc21 [GSK-269962A] was 71

Form field Population Healthy Nuclei (%), entry CCc1cc2c(cc1CC)CC(NC[C@H](O)c1ccc(O)c3[nH]c(=O)ccc13)C2 : 74

Recorded Population Healthy Nuclei (%) (compound CCOc1cc2ncc(C#N)c(Nc3ccc(OCc4cccc(F)c4)c(Cl)c3)c2cc1NC(=O)/C=C/CN(C)C ): 82

The reported Population Healthy Nuclei (%) of the compound Nc1ccc(C(=O)Nc2cccc(-c3nc(N4CCOCC4)c4oc5ncccc5c4n3)c2)cn1 was 65

The compound Nc1nc2c(c(N3CCNCC3)n1)CCC1=C2[C@@H]2CCCC[C@@H]2O1 showed Population Healthy Nuclei (%) equal to 65

Lookup result for COc1cc2c(NC3CCN(C(C)C)CC3)nc(N3CCC(F)(F)CC3)nc2cc1OCCCN1CCCC1 ; measured Population Healthy Nuclei (%): 65

# Population Healthy Nuclei (%) of CCOc1cc(N2CCC(O)CC2)ccc1Nc1ncc2c(n1)N(C1CCCC1)CCC(=O)N2C = 87

Attribution: ChEMBL document CHEMBL4689842
